# measurementTarget: Gastrin/cholecystokinin type B receptor (Cavia porcellus)
# method: Apparent affinity to inhibit binding of [3H]pCCK-8 to Cholecystokinin type B receptor of guinea pig brain membranes
Where a SMILES comes first, the peptide text is derived from it. [ ]: non-standard residue; d: D form. The star is where a group is joined. sY = N[C@@H](Cc1ccc(OS(=O)(=O)O)cc1)C(=O)O; Nle = CCCC[C@H](N)C(=O)O; Orn = NCCC[C@H](N)C(=O)O; Cbz = O=C(OCc1ccccc1)*; Boc = CC(C)(C)OC(=O)*
measurementLabel: Ki (nM)

{"compound": "CC(C)(C)OC(=O)N[C@@H](Cc1c[nH]c2ccccc12)C(=O)N[C@@H](CCCNC(=O)OCc1ccccc1)C(=O)N[C@@H](CC(=O)O)C(N)=O (Boc-Trp-[Orn](Cbz)-Asp-NH2)", "measurementLabel": "Ki", "valueReported": 4200}
{"compound": "CC(C)(C)OC(=O)N[C@@H](Cc1c[nH]c2ccccc12)C(=O)N[C@@H](CCCNC(=O)OCc1ccccc1)C(=O)N[C@@H](CC(=O)O)C(=O)N[C@@H](Cc1ccccc1)C(N)=O (Boc-W[Orn](Cbz)DF-NH2)", "measurementLabel": "Ki", "valueReported": 580}
{"compound": "CCCC[C@H](NC(=O)[C@H](Cc1ccc(OS(=O)(=O)O)cc1)NC(=O)OC(C)(C)C)C(=O)NCC(=O)N[C@@H](Cc1c[nH]c2ccccc12)C(=O)N[C@@H](CCCNC(=O)OCc1ccccc1)C(=O)N[C@@H](CC(=O)O)C(N)=O (Boc-[sY][Nle]GW[Orn](Cbz)D-NH2)", "measurementLabel": "Ki", "valueReported": 54}
